target.of.assay: recombinant human c-MET kinase enzyme domain (Homo sapiens, UniProt P08581)
Construct: Recombinant c-Met kinase domain (amino acids 960-1390); His (N); SF21 is named only for the alternative format)
Sequence (P08581 960-1390): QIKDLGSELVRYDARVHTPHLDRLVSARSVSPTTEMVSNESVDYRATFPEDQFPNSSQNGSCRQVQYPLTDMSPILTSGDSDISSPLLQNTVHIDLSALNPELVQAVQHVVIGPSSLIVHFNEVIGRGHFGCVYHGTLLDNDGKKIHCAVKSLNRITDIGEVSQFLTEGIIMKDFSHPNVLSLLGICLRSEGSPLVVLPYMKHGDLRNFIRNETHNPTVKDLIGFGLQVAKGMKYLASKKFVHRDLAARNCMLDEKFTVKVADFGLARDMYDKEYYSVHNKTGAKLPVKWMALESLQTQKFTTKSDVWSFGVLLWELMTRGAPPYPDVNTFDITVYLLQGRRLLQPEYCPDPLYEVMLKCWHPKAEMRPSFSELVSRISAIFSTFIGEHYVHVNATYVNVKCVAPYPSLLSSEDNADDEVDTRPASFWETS
assay.remarks: c-MET receptor tyrosine kinase Homogeneous Time Resolved Fluorescence assay (HTRF)
condition.info: Biological Example 1 and/or Biological Example 2
pIC50: −log10 of the molar value.
parameter: pIC50

CC1=C(C#N)C(c2ccc3[nH]nc(NCc4ccc(N(C)CCO)cc4)c3c2)C(C#N)=C(C)N1 [compound 172] ... > 7.00
CC1=C(C#N)C(c2cccc(C(=O)Nc3ccc(CN(C)C)cn3)c2)C(C#N)=C(C)N1 [compound 76] ... 6.30 to 7.00
CC1=C(C#N)C(c2ccc3[nH]nc(NCC4CCNCC4)c3c2)C(C#N)=C(C)N1 [compound 133] ... > 7.00
CC1=C(C#N)C(c2ccc3[nH]ncc3c2)C(C#N)=C(c2ccco2)N1 (centres unmarked) [compound 267] ... > 7.00
COC(=O)c1ccc(CNc2n[nH]c3ccc(C4C(C#N)=C(C)NC(C)=C4C#N)cc23)cc1 [compound 135] ... > 7.00
CC1=C(C#N)C(c2cccc(NC(=O)c3ncc[nH]3)c2)C(C#N)=C(C)N1 [compound 65] ... 6.30 to 7.00
CCOC(=O)CN1C(C)=C(C#N)C(c2ccc3[nH]ncc3c2)C(C#N)=C1C [compound 290] ... > 7.00
CCC1=C(C#N)C(c2ccc3[nH]ncc3c2)C(C#N)=C(CC)N1 [compound 269] ... > 7.00

// data source = patent US8198456B2
